- TESTED SYSTEM: prolyl oligo peptidase (POP) (Homo sapiens)
- Construct: purchased BPS Bioscience 80105
- Sequence (P48147 whole entry): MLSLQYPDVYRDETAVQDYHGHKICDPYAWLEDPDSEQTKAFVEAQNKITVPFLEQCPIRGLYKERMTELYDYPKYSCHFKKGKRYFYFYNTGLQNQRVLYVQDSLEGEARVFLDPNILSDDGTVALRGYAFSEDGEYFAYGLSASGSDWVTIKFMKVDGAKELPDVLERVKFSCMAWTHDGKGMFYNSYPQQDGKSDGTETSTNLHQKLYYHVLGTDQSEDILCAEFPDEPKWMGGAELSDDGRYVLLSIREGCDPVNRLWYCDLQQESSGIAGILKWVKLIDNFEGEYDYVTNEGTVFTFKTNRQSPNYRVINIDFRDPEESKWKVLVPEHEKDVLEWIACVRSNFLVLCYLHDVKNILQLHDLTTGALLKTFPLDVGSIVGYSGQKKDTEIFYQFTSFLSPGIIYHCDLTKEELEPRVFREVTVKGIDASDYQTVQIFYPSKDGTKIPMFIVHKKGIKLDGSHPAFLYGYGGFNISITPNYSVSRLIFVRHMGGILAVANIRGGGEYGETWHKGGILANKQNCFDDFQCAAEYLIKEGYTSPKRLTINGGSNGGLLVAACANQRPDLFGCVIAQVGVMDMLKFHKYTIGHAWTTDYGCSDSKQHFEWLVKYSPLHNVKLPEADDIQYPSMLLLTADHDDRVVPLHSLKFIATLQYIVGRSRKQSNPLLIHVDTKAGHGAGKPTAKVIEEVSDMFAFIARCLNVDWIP
- RUN DESCRIPTION: In vitro fluorescence enzymatic inhibition assay, POP
- Type: biochemical
- ASSAY CONDITIONS: recombinant POP/PREP, fluorogenic substrate
RECORDED METRIC: IC50 (nM)

1. [^natGa]Ga-OncoFAP-DOTAGA [^natGa-OncoFAP] : 49.2

====

- TESTED SYSTEM: dipeptidyl peptidase 8 (DPP8) (Homo sapiens)
- Construct: purchased BPS Bioscience 80080
- Sequence (Q6V1X1 whole entry): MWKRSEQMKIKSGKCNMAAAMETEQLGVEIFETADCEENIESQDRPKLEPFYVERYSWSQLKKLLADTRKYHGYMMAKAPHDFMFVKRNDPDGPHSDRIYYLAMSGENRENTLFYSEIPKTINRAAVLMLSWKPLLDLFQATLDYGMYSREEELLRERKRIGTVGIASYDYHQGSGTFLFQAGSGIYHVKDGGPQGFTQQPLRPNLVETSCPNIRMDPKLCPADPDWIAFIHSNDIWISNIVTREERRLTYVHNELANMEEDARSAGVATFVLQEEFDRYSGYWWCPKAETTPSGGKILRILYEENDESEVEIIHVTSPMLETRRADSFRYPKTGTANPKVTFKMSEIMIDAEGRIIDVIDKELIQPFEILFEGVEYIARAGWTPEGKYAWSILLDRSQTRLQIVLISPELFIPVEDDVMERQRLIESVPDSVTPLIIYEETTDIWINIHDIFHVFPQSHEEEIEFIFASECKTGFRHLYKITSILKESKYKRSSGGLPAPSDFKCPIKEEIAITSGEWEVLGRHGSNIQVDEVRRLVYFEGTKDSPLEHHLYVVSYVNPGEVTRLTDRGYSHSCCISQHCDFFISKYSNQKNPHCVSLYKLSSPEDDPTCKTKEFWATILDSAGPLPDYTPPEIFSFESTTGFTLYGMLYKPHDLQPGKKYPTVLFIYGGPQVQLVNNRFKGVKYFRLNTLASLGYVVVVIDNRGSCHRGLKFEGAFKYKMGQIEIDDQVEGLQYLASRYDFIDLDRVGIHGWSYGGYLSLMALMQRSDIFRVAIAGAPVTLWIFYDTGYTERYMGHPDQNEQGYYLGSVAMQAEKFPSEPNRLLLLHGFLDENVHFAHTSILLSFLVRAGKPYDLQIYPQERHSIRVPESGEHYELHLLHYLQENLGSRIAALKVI
- RUN DESCRIPTION: In vitro fluorescence enzymatic inhibition assay, DPP8
- Format: biochemical
- ASSAY CONDITIONS: recombinant DPP8, fluorogenic substrate
RECORDED METRIC: IC50 (µM)

1. [^natGa]Ga-OncoFAP-DOTAGA [^natGa-OncoFAP] : 6.87
